FYI, the data here is from ChEMBL document CHEMBL1124382.

Please go through the items and note down their LD50.
experiment: The compound was tested for toxicity in mice, expressed as LD50; type: organism-based; details: in vivo
Just so you know, I need the unit written after the number.

INPUT: Please look up its LD50: "C[C@H](NC(=O)CN)C(=O)NCCSSCCNC(=O)[C@@H](C)NC(=O)CN"
OUTPUT: 800 mg/kg

INPUT: Then this compound: "CC(=O)SCCNC(=O)CN"
OUTPUT: 1500 mg/kg

INPUT: Then this compound: "CC(=O)SCCNC(=O)CNC(=O)[C@@H](C)N"
OUTPUT: 1500 mg/kg

INPUT: Then this compound: "NCC(=O)NCC(=O)NCCSSCCNC(=O)CNC(=O)CN"
OUTPUT: 2000 mg/kg

INPUT: Then this compound: "CC(=O)SCCNC(=O)CNC(=O)CN"
OUTPUT: 2400 mg/kg

INPUT: Then this compound: "C[C@H](N)C(=O)NCC(=O)NCCSSCCNC(=O)CNC(=O)[C@@H](C)N"
OUTPUT: 1500 mg/kg

INPUT: Then this compound: "CC(=O)SCCNC(=O)[C@H](C)NC(=O)CN"
OUTPUT: 1500 mg/kg
